inhibition at 50 µM values, listed per item
Target: SARS‐CoV‐2 M^pro (Severe acute respiratory syndrome coronavirus 2)
Test: Screening of M^pro inhibition at 10 and 50 µM (fluorogenic substrate Boc‐Abu‐Tle‐Leu‐Gln‐AMC)
Format: biochemical
Conditions: read-out: Inhibition @ [I] = 50 µM (%)
The reply should be a number in %, with the unit left off.

Recorded inhibition at 50 µM, per entry:
| Compound | Recorded Metric | Readout Unit | Test Result |
| --- | --- | --- | --- |
| CC(C)(C)[C@H](NC(=O)c1cccs1)C(=O)N[C@@H](Cc1ccccc1)C(=O)NN(Cc1cccc(Cl)c1)C(=O)C(F)Cl (mixture of isomers) [Compound 14] | inhibition at 50 µM | % | 69 |
| COC(=O)/C=C(\C(=O)OC)N(C)NC(=O)[C@H](Cc1ccccc1)NC(=O)OCc1ccccc1 [Compound 2] | inhibition at 50 µM | % | 2 |
| CN(NC(=O)[C@H](Cc1ccccc1)NC(=O)OCc1ccccc1)C(=O)C(F)Cl (stereo partly drawn) [Compound 8] | inhibition at 50 µM | % | 16 |
| CCOC(=O)/C=C/C(=O)N(C)NC(=O)[C@H](Cc1ccccc1)NC(=O)OCc1ccccc1 [Compound 5] | inhibition at 50 µM | % | 13 |

// switching to the query compound
# input Which value of inhibition at 50 µM has been reported for COC(=O)/C=C/N(C)NC(=O)[C@H](Cc1ccccc1)NC(=O)OCc1ccccc1 [Compound 1] in the records?
# output 0

These data points were gathered from paper PMC12723578.
